target: HLA-B*15:02; test: IEDB peptide-MHC binding, purified MHC/direct/fluorescence; filed as Kd, often an IC50 or EC50 that approximates it; bounds were set here for any values at or beyond the usual limits of such assays; conditions: source organism: Mycobacterium tuberculosis str. Haarlem
Assay endpoint: Kd (nM)
Answers are plain numbers, in nM.

Any idea what its Kd is? The sequence is "SMRFESSPH" 49

---

target: HLA-B*15:09; assay: IEDB peptide-MHC binding, purified MHC/direct/fluorescence; filed as Kd, often an IC50 or EC50 that approximates it; bounds were set here for any values at or beyond the usual limits of such assays; details: source organism: Yellow fever virus
pKd: −log10 of the molar value.
Assay endpoint: pKd

What does the record list as pKd for "VRGGMVAPL" ? ≤ 4.70
